Origin of values: PubChem BioAssay (NCI)

system: MALME-3M melanoma; experiment: NCI tumour cell line growth inhibition, 48 h
Test Readout: TGI

The reported value for Cc1c(C)c2c(c(N)c1C#N)C(=O)N(Nc1ccccc1)C2=O in terms of TGI is > 100 µM

The reported value for CC(C)(C)OC(=O)c1cnc(Cl)cn1 in terms of TGI is > 100 µM

###

tested on: UO-31 renal; experiment: NCI tumour cell line growth inhibition, 48 h
The label depends only on TGI: 1 (yes) if it is at least 9 µM, 0 (no) if it is smaller.

Use the examples below as a reference point.
{"columns": ["Molecule", "Label Class"],
 "data": [
  ["C/C(=N\\Nc1cc(C)c2cc(C)ccc2n1)c1ccccn1", "0 (no)"],
  ["O=C(CC1(O)C(=O)Nc2c(Cl)ccc(Cl)c21)c1ccc2ccccc2c1 (stereo unspecified)", "1 (yes)"],
  ["CC(=O)OCC(OC(C)=O)C(OC(C)=O)C(OC(C)=O)C(C=NN(C(C)=O)S(=O)(=O)c1ccc(/C=C2\\NC(=O)N(C)C2=O)cc1)OC(C)=O (stereo unspecified)", "1 (yes)"],
  ["O=C(CC(C(=O)c1ccco1)c1ccsc1)c1ccco1 (stereo unspecified)", "1 (yes)"],
  ["O=C1C(Cl)=C(Nc2cccc(Cl)c2)C(=O)N1Cc1ccccc1Cl", "0 (no)"]
]}

Decide: is the reported value of TGI for Nc1ncnc2c1nc(Cl)n2C1OC2COP(=O)(O)OC2C1O (stereo unspecified) equal to or greater than 9 µM?
1 (yes)

Decide: is the reported value of TGI for CC(=O)OC1COC(Nc2ccc(C(C)=O)cc2)C(OC(C)=O)C1OC(C)=O (stereo unspecified) equal to or greater than 9 µM?
1 (yes)

Decide: is the reported value of TGI for C=C(C)C1Cc2c(cc(O)c3c(=O)c4c(oc23)C(O)Oc2cc(OC)c(OC)cc2-4)O1 (stereo unspecified) equal to or greater than 9 µM?
1 (yes)

###

tested on: SR leukemia; experiment: NCI tumour cell line growth inhibition, 48 h
Reported values of TGI for individual entries

{"columns": ["Compound", "Assay Target", "TGI"],
 "data": [
  ["O=C(Nc1cc(Cl)cc(Cl)c1)c1ccc(NC2=C(Cl)C(=O)N(Cc3ccc(Cl)cc3Cl)C2=O)cc1", "SR leukemia", "0.238 µM"]
]}

Kindly note: SR leukemia, COc1cc2c3c(n(CCCN)c(=O)c2cc1OC)-c1cc2c(cc1/C3=C\CCN)OCO2 , TGI value reported: > 100 µM

###

test system: 786-0 renal; assay: NCI tumour cell line growth inhibition, 48 h; in the data active = GI50 below about 0.43 µM; inactive = the rest
Answer with one of the outcomes given here: 1 = active, 0 = inactive

Use the examples below as a reference point.
{"columns": ["Compound", "Label Class"],
 "data": [
  ["CCn1c(CN2CCN(Cc3ccccc3)CC2)nc2cc(NC(=O)c3cccs3)ccc21", 0],
  ["COc1ccc(/C=C/C(=O)c2ccc(SC)cc2)cc1OC", 0]
]}

Given O=C(CNc1ccc2c(c1)C(=O)c1ccccc1C2=O)Nc1ccc2c(c1)C(=O)c1ccccc1C2=O , state the outcome it received in this test.
0

Given C=CC(=O)N1CCN(c2nc(=O)n(-c3c(C)ccnc3C(C)C)c3nc(-c4c(O)cccc4F)c(F)cc23)[C@@H](C)C1 , state the outcome it received in this test.
0

Given Cc1ccccc1N=Nc1ccc(NC(=O)c2ccnn2C)c(C)c1 , state the outcome it received in this test.
0

Given C=C(CN1C(=O)[C@H]2CCCN2C(=O)c2ccccc21)c1ccc(C(=O)O)cc1 , state the outcome it received in this test.
0

Given COc1cc2c3c(n(CCCN)c(=O)c2cc1OC)-c1cc2c(cc1/C3=C\CCN)OCO2 , state the outcome it received in this test.
0
